Data provenance is PubChem BioAssay.

Measured AC50, listed per entry.
assay: viability loss in pontine glioma line – cell-based, SU-DIPG-IV, MIPE4.0, CellTiter-Glo, qHTS, dose response (AID 1347063); conditions: CellTiter-Glo ATP luminescence;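 also: compound exposure lasted 48 hours before the viability readout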
Results filed as inconclusive are left out. Activity calls are given as the source filed them. The limit is not given here; nearly all actives have AC50 up to about 30 µM.

// solved cases for AC50 follow
Cc1nc2cnc3ccc(C#Cc4cccnc4)cc3c2n1-c1ccc(C(C)(C)C#N)cc1; 0.0296 µM (active)
CO/N=C(/C(=O)N[C@@H]1C(=O)N2C(C(=O)O)=C(CSC(=O)c3ccco3)CS[C@H]12)c1csc(N)n1; 23.5 µM (active)
CC(C)(C)c1cnc(CSc2cnc(NC(=O)C3CCNCC3)s2)o1; 0.264 µM (active)

Qu. Please indicate AC50 recorded for "C#Cc1cccc(Nc2ncnc3cc(OCCOC)c(OCCO)cc23)c1"
Ans. 2.96 µM (active)
